Numbers sourced from ChEMBL document CHEMBL1201862.

experiment: viability of PTEN-deleted HCT116 cells – cell-based, HCT116 PTEN knockout, dose response (AID 1047);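 note: HCT116 colon tumor cells with PTEN knocked out; cells exposed to compound for 60 hours before readout; potency for loss of cell viability measured by luminescence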
Format: functional
Activity calls are given as the source filed them.
readout-type: EC50

// below: answered molecules
CC1=C/C(=N\OS(=O)(=O)c2ccccc2)C(C(C)C)=CC1=O = 2.93 µM (active)
Cc1ccccc1C(=O)Nc1ccc2c(C#N)c3nc4ccccc4nc3n2c1 = 6.62 µM (active)

Using the record for CC(C)CC(=O)/N=C1\SC2CS(=O)(=O)CC2N1Cc1ccccc1 (centres undefined) , report its EC50.
41.1 µM (active)

Using the record for O=C(c1cccc(Cl)c1)c1nn(-c2ccccc2)c(=O)cc1C(F)(F)F , report its EC50.
10.6 µM (active)

====

Test system: Streptococcus
experiment: GAS UMAA2166 growth inhibition – luminescence, BacTiterGlo, counter-screen for streptokinase expression inhibitor project, dose response (AID 1915);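 note: potency for reduction of bacterial viability or growth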
Type: functional, organism-based
Calls of active or inactive are those of the source.
readout-type: EC50

O=C(C[n+]1nc(CNc2ccc(Cl)cc2)n2c1CCCCC2)c1ccc(Br)cc1 = 84.2 µM (active)

--- query ---
Using the record for FC(F)(F)c1cc(N2CCN(Cc3ccccc3)CC2)c2ccccc2n1 , report its EC50.
> 150 µM (not active)

====

target-or-test-system: High affinity choline transporter 1 (Homo sapiens, UniProt Q9GZV3)
Sequence (Q9GZV3 whole entry): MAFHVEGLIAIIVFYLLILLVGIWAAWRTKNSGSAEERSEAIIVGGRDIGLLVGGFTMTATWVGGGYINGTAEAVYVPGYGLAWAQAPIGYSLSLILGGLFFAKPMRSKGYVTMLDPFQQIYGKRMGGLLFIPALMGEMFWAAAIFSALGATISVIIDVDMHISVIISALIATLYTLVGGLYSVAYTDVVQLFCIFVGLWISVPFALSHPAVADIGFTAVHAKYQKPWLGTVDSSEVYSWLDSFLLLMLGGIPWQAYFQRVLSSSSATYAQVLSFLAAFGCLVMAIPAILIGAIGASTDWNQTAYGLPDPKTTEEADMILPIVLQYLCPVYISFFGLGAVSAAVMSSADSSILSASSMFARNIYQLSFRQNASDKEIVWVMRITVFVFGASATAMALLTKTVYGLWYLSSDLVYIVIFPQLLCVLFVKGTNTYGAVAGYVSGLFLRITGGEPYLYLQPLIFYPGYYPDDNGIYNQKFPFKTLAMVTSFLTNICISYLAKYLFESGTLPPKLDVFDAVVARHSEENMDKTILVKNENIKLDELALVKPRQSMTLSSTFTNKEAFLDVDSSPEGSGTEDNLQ
experiment: human choline transporter blockers, potency – cell-based, 5-point CRC, membrane potential dye, dose response (AID 504840)
Type: functional
Activity calls are given as the source filed them.
readout-type: IC50

// below: answered compounds
Cc1noc(NS(=O)(=O)c2ccc(NC(=O)COc3ccc(Cl)cc3Cl)cc2)c1C = 1.08 µM (active)
CCc1nnc(NS(=O)(=O)c2ccc(NC(=O)c3cc(Cl)ccc3Cl)cc2)s1 = 12.3 µM (active)
C/C(=N\OCC(=O)Nc1ccccc1C(=O)O)c1cccs1 = 11 µM (active)
CCOc1ccccc1C(=O)NC(C)c1ccc2c(c1)OCO2 (stereo not given) = 19.1 µM (active)

--- query ---
Find IC50 (High affinity choline transporter 1 (Homo sapiens, UniProt Q9GZV3)) for the entry CCN(CC)CCCC(C)NC(=O)c1c(NC(=O)c2ccccc2)sc2c1CCCC2 (stereo not given)
2.41 µM (active)

====

target-or-test-system: UniProt:Q8VNN2
Sequence (Q8VNN2 whole entry): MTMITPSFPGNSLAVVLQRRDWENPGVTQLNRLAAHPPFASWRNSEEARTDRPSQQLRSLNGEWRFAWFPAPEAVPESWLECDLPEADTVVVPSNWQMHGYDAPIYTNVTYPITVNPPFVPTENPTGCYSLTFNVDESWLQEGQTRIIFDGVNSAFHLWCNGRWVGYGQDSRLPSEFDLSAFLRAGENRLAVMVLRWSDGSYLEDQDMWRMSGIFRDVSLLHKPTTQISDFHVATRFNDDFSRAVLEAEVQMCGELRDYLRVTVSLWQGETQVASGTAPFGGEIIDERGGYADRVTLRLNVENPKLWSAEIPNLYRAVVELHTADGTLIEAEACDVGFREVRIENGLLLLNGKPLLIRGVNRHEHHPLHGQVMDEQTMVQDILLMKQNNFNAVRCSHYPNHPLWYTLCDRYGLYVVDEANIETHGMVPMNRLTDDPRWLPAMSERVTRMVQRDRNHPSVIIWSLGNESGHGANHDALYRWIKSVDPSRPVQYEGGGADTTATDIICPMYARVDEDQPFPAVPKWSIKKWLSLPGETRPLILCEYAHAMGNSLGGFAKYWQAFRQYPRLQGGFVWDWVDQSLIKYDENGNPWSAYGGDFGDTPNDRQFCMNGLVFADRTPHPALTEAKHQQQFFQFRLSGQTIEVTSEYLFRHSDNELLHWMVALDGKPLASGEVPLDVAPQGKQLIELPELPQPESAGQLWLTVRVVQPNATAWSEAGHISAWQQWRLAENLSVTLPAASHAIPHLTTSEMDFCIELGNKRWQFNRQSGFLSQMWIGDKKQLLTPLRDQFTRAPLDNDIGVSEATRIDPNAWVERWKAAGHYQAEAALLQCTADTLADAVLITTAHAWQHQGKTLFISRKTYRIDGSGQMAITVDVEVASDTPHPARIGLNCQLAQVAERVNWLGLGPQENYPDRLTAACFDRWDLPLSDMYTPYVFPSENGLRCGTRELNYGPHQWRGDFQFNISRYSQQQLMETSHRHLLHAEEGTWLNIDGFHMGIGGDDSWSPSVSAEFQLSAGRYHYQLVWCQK
Type: functional
The source made the active and inactive calls.
readout-type: EC50

// below: answered compounds
COc1cc(/C=C2\SC(=S)N(NC(=O)c3ccc(O)c(OC)c3)C2=O)ccc1O = 10.3 µM (active)
COc1ccc(-n2nc(C#N)c(Cl)cc2=O)cc1 = > 31.5 µM (inactive)

Using the record for Cc1nn(-c2ccccc2)c(O)c1/C=N/N1C(=O)c2cccc3cccc(c23)C1=O , report its EC50.
> 31.5 µM (inactive)

Using the record for Cc1cccc(C(=O)NC2CC3CCCC(C2)N3Cc2ccccc2)c1 (centres undefined) , report its EC50.
> 31.5 µM (inactive)

====

Measured IC50 by item
target-or-test-system: Protein skinhead-1 (Caenorhabditis elegans, UniProt P34707)
Sequence (P34707 whole entry): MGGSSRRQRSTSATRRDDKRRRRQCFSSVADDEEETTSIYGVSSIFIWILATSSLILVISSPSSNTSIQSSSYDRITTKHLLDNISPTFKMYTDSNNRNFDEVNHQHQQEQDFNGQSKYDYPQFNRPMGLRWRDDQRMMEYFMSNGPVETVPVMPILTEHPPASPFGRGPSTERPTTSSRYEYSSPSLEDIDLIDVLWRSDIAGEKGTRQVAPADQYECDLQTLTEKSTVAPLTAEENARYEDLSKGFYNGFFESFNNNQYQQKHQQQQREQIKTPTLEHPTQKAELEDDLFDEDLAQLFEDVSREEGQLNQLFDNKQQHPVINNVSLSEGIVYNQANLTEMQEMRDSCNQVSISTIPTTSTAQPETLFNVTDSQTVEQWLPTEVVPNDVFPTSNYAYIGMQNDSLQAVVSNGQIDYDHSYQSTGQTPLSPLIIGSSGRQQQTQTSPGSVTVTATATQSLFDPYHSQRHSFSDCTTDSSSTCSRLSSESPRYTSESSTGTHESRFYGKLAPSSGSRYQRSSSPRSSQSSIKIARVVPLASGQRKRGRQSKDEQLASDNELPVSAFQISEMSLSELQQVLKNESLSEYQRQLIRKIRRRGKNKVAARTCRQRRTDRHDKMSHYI
Type: functional
Calls of active or inactive are those of the source.

O=[N+]([O-])c1cccc2ccc(/C=C/c3ccc(Cl)cc3)nc12 = > 100 µM (inactive)
c1ccc(CSc2ncnc3ccccc23)cc1 = 36.1 µM (active)
COc1cc(CNC2CCCC2)cc(Cl)c1OCc1ccc(F)cc1 = 3.33 µM (active)
CCOC(=O)CN1CC23C=CC(O2)C(C(=O)NCc2cccs2)C3C1=O (stereo unspecified) = > 100 µM (inactive)
COc1nc(-c2ccccc2)nnc1-c1ccccc1 = 23 µM (active)

--- query ---
Using the record for CC1CCCCN1S(=O)(=O)c1ccc(C(=O)Nc2sccc2C(N)=O)cc1 (stereo unspecified) , report its IC50.
> 100 µM (inactive)

====

target-or-test-system: Endoribonuclease toxin MazF (Escherichia coli K-12)
Sequence (P0AE70 whole entry): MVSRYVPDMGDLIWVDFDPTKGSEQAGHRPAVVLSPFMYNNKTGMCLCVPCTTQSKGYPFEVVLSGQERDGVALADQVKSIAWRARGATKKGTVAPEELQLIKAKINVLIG
experiment: activation of MazEF endoribonuclease cleavage – biochemical, fluorescence, single-stranded RNA substrate, uHTS hits, dose response (AID 588481)
Assay type: functional
Calls of active or inactive are those of the source.
readout-type: EC50

// below: answered compounds
O=C(C1=NN[C@@H]2C(=O)N(c3cccc(C(F)(F)F)c3)C(=O)[C@H]12)c1ccc2ccccc2n1 = 47.9 µM (inactive)
O=[N+]([O-])c1ccc(NN=Cc2cccc3ccccc23)nc1 = > 99 µM (inactive)
Cc1cc(C(=O)N/N=C/c2ccc(-c3ccc([N+](=O)[O-])cc3C)o2)[nH]n1 = > 99 µM (inactive)

Using the record for CC(=O)Nc1ccc(C(=O)CSc2cc(C)c3cccc(C)c3n2)cc1 , report its EC50.
> 99 µM (inactive)

Using the record for CN(C(=O)COC(=O)c1ccc([N+](=O)[O-])cc1N)c1ccccc1 , report its EC50.
> 99 µM (inactive)

====

target-or-test-system: Streptokinase A (Streptococcus pyogenes serotype M1, UniProt P10520)
Sequence (P10520 whole entry): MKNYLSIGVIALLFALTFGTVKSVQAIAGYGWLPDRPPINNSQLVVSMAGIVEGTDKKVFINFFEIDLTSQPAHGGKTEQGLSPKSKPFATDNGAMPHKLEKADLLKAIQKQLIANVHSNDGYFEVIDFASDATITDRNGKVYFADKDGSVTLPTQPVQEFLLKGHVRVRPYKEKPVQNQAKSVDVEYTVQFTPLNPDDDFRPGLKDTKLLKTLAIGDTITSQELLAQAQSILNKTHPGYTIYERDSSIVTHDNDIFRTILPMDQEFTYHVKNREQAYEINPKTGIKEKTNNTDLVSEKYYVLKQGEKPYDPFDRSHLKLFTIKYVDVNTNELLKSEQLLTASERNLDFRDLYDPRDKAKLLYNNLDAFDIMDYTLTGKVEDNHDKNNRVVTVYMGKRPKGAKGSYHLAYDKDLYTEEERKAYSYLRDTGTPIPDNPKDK
experiment: viability-normalized secreted streptokinase activity reduction – plasminogen activation absorbance, OD405, dose response (AID 1914);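 note: secreted streptokinase activity via plasminogen activation per viability signal from cell pellet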
Assay type: functional, Streptococcus pyogenes M1 GAS
Activity calls are given as the source filed them.
Measured EC50 by item

// below: answered compounds
Cc1cccc(NC2=Nc3ccccc3N3C2=Nc2c(c(C)nn2-c2ccccc2)C3c2ccc(O)c(O)c2)c1 (stereo not given) = > 150 µM (not active)
Oc1ccc(-c2c(C3=CCCCC3)sc3ccccc23)cc1 = 55.7 µM (inconclusive)
CCN(CC)c1ccc(-n2cc3c(=O)n(C)c(=O)n(C)c3c2)cc1 = > 150 µM (not active)

Find EC50 (Streptokinase A (Streptococcus pyogenes serotype M1, UniProt P10520)) for the entry C/C(=N\N=C(/N)SC1CC(=O)N(c2ccc(Cl)c(Cl)c2)C1=O)c1cccs1 (stereo not given)
7.44 µM (inconclusive)

Find EC50 (Streptokinase A (Streptococcus pyogenes serotype M1, UniProt P10520)) for the entry CCOC(=O)c1cnn(-c2nc3c(C)cccc3s2)c1C(F)(F)F
22.3 µM (active)

Find EC50 (Streptokinase A (Streptococcus pyogenes serotype M1, UniProt P10520)) for the entry CCN(CC)c1ccc(C(=O)OCc2cc(=O)oc3cc(O)ccc23)cc1
128 µM (active)

Find EC50 (Streptokinase A (Streptococcus pyogenes serotype M1, UniProt P10520)) for the entry FC(F)(F)c1cc(N2CCN(Cc3ccccc3)CC2)c2ccccc2n1
> 150 µM (not active)

Find EC50 (Streptokinase A (Streptococcus pyogenes serotype M1, UniProt P10520)) for the entry OC(COc1ccc2ccccc2c1Br)Cn1cnc(-c2ccccc2)c1 (stereo not given)
9.22 µM (active)

Find EC50 (Streptokinase A (Streptococcus pyogenes serotype M1, UniProt P10520)) for the entry Nc1c(S(=O)(=O)c2cccs2)c2nc3ccccc3nc2n1/N=C/c1cccc(O)c1
> 150 µM (not active)

Find EC50 (Streptokinase A (Streptococcus pyogenes serotype M1, UniProt P10520)) for the entry COc1ccc(O)c(C(=O)CC(=O)c2ccccc2C)c1
> 150 µM (not active)

====

Measured IC50 by item
target-or-test-system: UniProt Q96LD8
Sequence (Q96LD8 whole entry): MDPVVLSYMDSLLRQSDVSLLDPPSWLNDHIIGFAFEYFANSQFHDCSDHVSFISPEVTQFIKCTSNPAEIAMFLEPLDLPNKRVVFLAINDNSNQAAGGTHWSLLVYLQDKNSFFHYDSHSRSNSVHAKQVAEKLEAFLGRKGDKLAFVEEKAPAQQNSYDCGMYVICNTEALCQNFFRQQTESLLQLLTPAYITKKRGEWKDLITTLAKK
Format: functional
The source made the active and inactive calls.

Using the record for Cc1nn(-c2ccc(Cl)cc2)c(O)c1C(c1ccccc1O)c1c(C)[nH]n(-c2ccc(Cl)cc2)c1=O (centres undefined) , report its IC50.
32.9 µM (active)

Using the record for O=C1NC(=O)C(Nc2ccccc2)C(=O)N1 , report its IC50.
28.5 µM (active)

Using the record for O=C1CC(c2ccccc2)=NN1c1ccc([N+](=O)[O-])cc1 , report its IC50.
52.3 µM (active)

Using the record for COC/C=C/C1=CC2=CC(=O)C(C)(OC(=O)c3cnc4ccccc4n3)C(=O)C2=CN1CCCOC(C)C (centres undefined) , report its IC50.
8.09 µM (active)
